These entries and their values trace back to patent EP4755449A2.

- EXPERIMENTAL SYSTEM: T1, human latent myostatin (human, UniProt O14793 25-266; O14793 267-375)
- T1 construct: non-covalent complex of two propeptides and the mature homodimer; also called human myostatin latent form
- T1 sequence 1: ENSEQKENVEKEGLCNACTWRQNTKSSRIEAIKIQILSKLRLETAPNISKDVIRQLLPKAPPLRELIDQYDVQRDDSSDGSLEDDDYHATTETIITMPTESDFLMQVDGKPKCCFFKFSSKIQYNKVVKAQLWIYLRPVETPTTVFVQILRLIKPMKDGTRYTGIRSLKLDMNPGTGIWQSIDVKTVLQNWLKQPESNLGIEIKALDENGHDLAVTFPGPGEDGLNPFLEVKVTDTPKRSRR
- T1 sequence 2: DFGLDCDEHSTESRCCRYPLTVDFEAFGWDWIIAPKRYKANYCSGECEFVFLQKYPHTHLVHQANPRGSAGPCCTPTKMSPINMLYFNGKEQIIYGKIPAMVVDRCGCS
- TEST METHOD NOTES: SPR 37C
QUANTITY: ratio of KD at pH 5.8/pH7.4
Field format: numeric only.

Consider the following illustrative entries.
BINDER | ratio of KD at pH 5.8/pH7.4
MS_M103240H1246-SG1/M103202L1045-SK1 (antibody, human IgG1, kappa, V domains shown, also called MS1032LO25-SG1) VH: QVQLVESGGGLVQPGGSLRLSCAVSGIDLSHEDISWVRQAPGKGLEWVSIISYAGSKYYASWAKGRLTISKDTSKNQVVLTMTNMDPVDTATYYCARGVPAYSHGGDLWGQGTLVTVSS VL: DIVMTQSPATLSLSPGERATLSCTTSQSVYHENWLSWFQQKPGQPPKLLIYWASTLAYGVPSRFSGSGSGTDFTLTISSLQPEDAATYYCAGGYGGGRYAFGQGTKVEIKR | 92
MS_M103205H1004-SG1/M103202L889-SK1 (antibody, human IgG1, kappa, V domains shown, also called MS1032LO07-SG1) VH: QVTLKESGPVLVKPTETLTLTCTVSGIDLSHDDISWVRQAPGKGLEWVGIISYAGSMYYASWAKGRLTISKDTSKNQVVLTMTNMDPVDTATYYCARGVPAYSHGGDKWGQGTLVTVSS VL: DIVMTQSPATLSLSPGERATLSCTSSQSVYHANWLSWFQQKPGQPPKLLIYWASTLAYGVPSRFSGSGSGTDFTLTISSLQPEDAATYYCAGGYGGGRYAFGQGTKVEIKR | 168
MS_M103245H795-SG1/M103202L1045-SK1 (antibody, human IgG1, kappa, V domains shown, also called MS1032LO21-SG1) VH: QVTLKESGPVLVKPTETLTLTCKVSGIDLSHDDISWVRQAPGKGLEWVSIISYAGSTYYASWAKGRLTISKDTSKNQVVLTMTNMDPVDTATYYCARGVPAYSHGGDLWGQGTLVTVSS VL: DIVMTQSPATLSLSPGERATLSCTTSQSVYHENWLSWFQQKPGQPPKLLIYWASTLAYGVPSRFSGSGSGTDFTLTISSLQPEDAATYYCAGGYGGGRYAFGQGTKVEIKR | 204
MS_M103205H1046-SG1/M103202L889-SK1 (antibody, human IgG1, kappa, V domains shown, also called MS1032LO10-SG1) VH: QVTLKESGPVLVKPTETLTLTCTVSGIDLSHTDISWVRQAPGKGLEWVGIISYAGKTYYASWAKKRLTISKDTSKNQVVLTMTNMDPVDTATYYCARGVPAYSHGGDLWGQGTLVTVSS VL: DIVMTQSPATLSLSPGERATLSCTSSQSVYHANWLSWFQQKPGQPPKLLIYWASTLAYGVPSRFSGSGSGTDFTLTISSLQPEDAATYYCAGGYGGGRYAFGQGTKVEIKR | 125

Please examine the following record next.
Complete the entry with ratio of KD at pH 5.8/pH7.4 for MS_M103245H1233-SG1/M103202L1045-SK1 (antibody, human IgG1, kappa, V domains shown, also called MS1032LO23-SG1) VH: QVTLKESGPVLVKPTETLTLTCKVSGIDLSHEDISWVRQAPGKGLEWVSIISYAGSTYYASWAKGRLTISKDTSKNQVVLTMTNMDPVDTATYYCARGVPAYSHGGDLWGQGTLVTVSS VL: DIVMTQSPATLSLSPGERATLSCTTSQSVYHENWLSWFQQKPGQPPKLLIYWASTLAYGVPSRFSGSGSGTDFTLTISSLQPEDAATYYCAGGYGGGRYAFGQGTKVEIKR
62
